- TESTED_ON: DNA (cytosine-5)-methyltransferase 3A (Homo sapiens)
- ASSAY_INFO: Inhibition of human DNMT3A catalytic domain using AdoMet assessed as reduction of methylation in 5'-biotin/3' 6-carboxyfluorescein labeled DNA duplex at CpG site at 10 uM after 1 hr by fluorescence assay relative to control

STRUCTURE_SMILES: Clc1ccc2c(NCCN3CCC(COc4ccc5c(NCCCc6ccccc6)ncnc5c4)CC3)ccnc2c1
inhibition: 70%
--
STRUCTURE_SMILES: c1ccc(CCCNc2ncnc3cc(OCCCNCCNc4ccnc5ccccc45)ccc23)cc1
inhibition: 59%
--
STRUCTURE_SMILES: COc1ccc(CCNc2ncnc3cc(OCC4CCN(CCNc5ccnc6ccccc56)CC4)ccc23)cc1
inhibition: 82%
--
STRUCTURE_SMILES: COCn1ccc(NCCNCCCOc2ccc3c(NCCCc4ccccc4)ncnc3c2)nc1=O
inhibition: 0%
--
STRUCTURE_SMILES: Nc1ccc(CCNc2ncnc3cc(OCC4CCN(CCNc5ccnc6ccccc56)CC4)ccc23)cc1
inhibition: 68%

====

- TESTED_ON: DNA (cytosine-5)-methyltransferase 3A (Homo sapiens)
- ASSAY_INFO: Inhibition of human DNMT3A catalytic domain using AdoMet assessed as reduction of methylation in 5'-biotin/3' 6-carboxyfluorescein labeled DNA duplex at CpG site at 32 uM after 1 hr by fluorescence assay relative to control
# inhibition per entry

STRUCTURE_SMILES: c1ccc(CNc2ncnc3cc(OCC4CCN(CCNc5ccnc6ccccc56)CC4)ccc23)cc1
UNIT: %
inhibition: 81
//
STRUCTURE_SMILES: Cn1ccc2cc(NCCN3CCC(COc4ccc5c(NCCCc6ccccc6)ncnc5c4)CC3)ccc21
UNIT: %
inhibition: 90
//
STRUCTURE_SMILES: CN(C)c1ccc(NCCN2CCC(COc3ccc4c(NCCCc5ccccc5)ncnc4c3)CC2)c2ccccc12
UNIT: %
inhibition: 77
//
STRUCTURE_SMILES: c1ccc2c(CCCNc3ncnc4cc(OCC5CCN(CCNc6ccnc7ccccc67)CC5)ccc34)cccc2c1
UNIT: %
inhibition: 60
//
STRUCTURE_SMILES: FC(F)(F)c1cc(NCCN2CCC(COc3ccc4c(NCCCc5ccccc5)ncnc4c3)CC2)c2ccccc2n1
UNIT: %
inhibition: 0
//
STRUCTURE_SMILES: COCn1ccc(NCCN2CCC(COc3ccc4c(NCCCc5ccccc5)ncnc4c3)CC2)nc1=O
UNIT: %
inhibition: 44
//
STRUCTURE_SMILES: COCn1ccc(NCCNCCCOc2ccc3c(NCCCc4ccccc4)ncnc3c2)nc1=O
UNIT: %
inhibition: 0
//
STRUCTURE_SMILES: c1ccc(CCCNc2ncnc3cc(OCC4CCN(CCNc5ccncc5)CC4)ccc23)cc1
UNIT: %
inhibition: 72

====

- TESTED_ON: DNA (cytosine-5)-methyltransferase 3A (Homo sapiens, UniProt Q9Y6K1)
- Sequence (Q9Y6K1 whole entry, looked up, the tested form may be a part): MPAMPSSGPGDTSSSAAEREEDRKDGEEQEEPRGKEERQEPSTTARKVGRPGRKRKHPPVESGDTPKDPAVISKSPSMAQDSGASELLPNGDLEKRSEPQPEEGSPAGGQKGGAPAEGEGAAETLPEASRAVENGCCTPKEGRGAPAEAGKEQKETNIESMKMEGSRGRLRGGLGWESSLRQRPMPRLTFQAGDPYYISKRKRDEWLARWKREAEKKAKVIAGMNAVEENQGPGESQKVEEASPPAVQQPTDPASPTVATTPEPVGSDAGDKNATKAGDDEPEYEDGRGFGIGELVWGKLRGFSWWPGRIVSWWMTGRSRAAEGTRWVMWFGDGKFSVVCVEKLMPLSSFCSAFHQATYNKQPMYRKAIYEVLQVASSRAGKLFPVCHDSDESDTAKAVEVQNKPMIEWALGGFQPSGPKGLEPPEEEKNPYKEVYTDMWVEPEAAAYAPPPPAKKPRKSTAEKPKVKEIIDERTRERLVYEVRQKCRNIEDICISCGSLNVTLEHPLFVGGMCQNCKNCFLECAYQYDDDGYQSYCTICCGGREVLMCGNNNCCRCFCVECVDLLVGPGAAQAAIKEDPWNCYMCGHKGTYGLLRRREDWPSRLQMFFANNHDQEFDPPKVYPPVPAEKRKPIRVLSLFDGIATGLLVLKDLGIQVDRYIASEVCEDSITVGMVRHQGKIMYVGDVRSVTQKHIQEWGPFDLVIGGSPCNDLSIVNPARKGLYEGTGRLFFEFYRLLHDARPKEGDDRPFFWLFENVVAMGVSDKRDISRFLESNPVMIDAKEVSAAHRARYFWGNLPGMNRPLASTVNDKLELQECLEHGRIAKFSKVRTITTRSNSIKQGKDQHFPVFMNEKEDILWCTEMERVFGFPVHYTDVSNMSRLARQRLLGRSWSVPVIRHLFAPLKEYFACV
- ASSAY_INFO: Inhibition of human DNMT3A catalytic domain using AdoMet assessed as reduction of methylation in 5'-biotin/3' 6-carboxyfluorescein labeled DNA duplex at CpG site at 10 uM after 1 hr by fluorescence assay relative to control
Rule: inhibition of 80% or more gives class 1; anything lower gives class 0.

STRUCTURE_SMILES: Nc1ccc(NCCN2CCC(COc3ccc4c(NCCCc5ccccc5)ncnc4c3)CC2)cc1
TESTED_ON: DNA (cytosine-5)-methyltransferase 3A (Homo sapiens, UniProt Q9Y6K1)
ASSIGNED_LABEL: class 0
--
STRUCTURE_SMILES: NS(=O)(=O)c1ccc(CCNc2ncnc3cc(OCC4CCN(CCNc5ccnc6ccccc56)CC4)ccc23)cc1
TESTED_ON: DNA (cytosine-5)-methyltransferase 3A (Homo sapiens, UniProt Q9Y6K1)
ASSIGNED_LABEL: class 0
--
STRUCTURE_SMILES: Cn1ccc2cc(NCCN3CCC(COc4ccc5c(NCCCc6ccccc6)ncnc5c4)CC3)ccc21
TESTED_ON: DNA (cytosine-5)-methyltransferase 3A (Homo sapiens, UniProt Q9Y6K1)
ASSIGNED_LABEL: class 0
--
STRUCTURE_SMILES: Clc1ccc(CCNc2ncnc3cc(OCC4CCN(CCNc5ccnc6ccccc56)CC4)ccc23)cc1
TESTED_ON: DNA (cytosine-5)-methyltransferase 3A (Homo sapiens, UniProt Q9Y6K1)
ASSIGNED_LABEL: class 1
--
STRUCTURE_SMILES: COc1cc2nccc(NCCN3CCC(COc4ccc5c(NCCCc6ccccc6)ncnc5c4)CC3)c2cc1OC
TESTED_ON: DNA (cytosine-5)-methyltransferase 3A (Homo sapiens, UniProt Q9Y6K1)
ASSIGNED_LABEL: class 1
--
STRUCTURE_SMILES: CN(CCN1CCC(COc2ccc3c(NCCCc4ccccc4)ncnc3c2)CC1)c1ccnc2ccccc12
TESTED_ON: DNA (cytosine-5)-methyltransferase 3A (Homo sapiens, UniProt Q9Y6K1)
ASSIGNED_LABEL: class 0
--
STRUCTURE_SMILES: Cc1cc(Nc2ccc(NC(=O)c3ccc(Nc4ccnc5ccccc45)cc3)cc2)nc(N)n1
TESTED_ON: DNA (cytosine-5)-methyltransferase 3A (Homo sapiens, UniProt Q9Y6K1)
ASSIGNED_LABEL: class 0
--
STRUCTURE_SMILES: FC(F)(F)c1cc(NCCN2CCC(COc3ccc4c(NCCCc5ccccc5)ncnc4c3)CC2)c2ccccc2n1
TESTED_ON: DNA (cytosine-5)-methyltransferase 3A (Homo sapiens, UniProt Q9Y6K1)
ASSIGNED_LABEL: class 0
--
STRUCTURE_SMILES: c1ccc(CN2CCN(CCNc3ncnc4cc(OCC5CCN(CCNc6ccnc7ccccc67)CC5)ccc34)CC2)cc1
TESTED_ON: DNA (cytosine-5)-methyltransferase 3A (Homo sapiens, UniProt Q9Y6K1)
ASSIGNED_LABEL: class 0
--
STRUCTURE_SMILES: c1ccc(CCCNc2ncnc3cc(OCC4CCN(CCNc5cncc6ccccc56)CC4)ccc23)cc1
TESTED_ON: DNA (cytosine-5)-methyltransferase 3A (Homo sapiens, UniProt Q9Y6K1)
ASSIGNED_LABEL: class 0
--
STRUCTURE_SMILES: COc1ccc2c(NCCN3CCC(COc4ccc5c(NCCCc6ccccc6)ncnc5c4)CC3)ccnc2c1
TESTED_ON: DNA (cytosine-5)-methyltransferase 3A (Homo sapiens, UniProt Q9Y6K1)
ASSIGNED_LABEL: class 0
--
STRUCTURE_SMILES: c1ccc(NCCNc2ncnc3cc(OCC4CCN(CCNc5ccnc6ccccc56)CC4)ccc23)cc1
TESTED_ON: DNA (cytosine-5)-methyltransferase 3A (Homo sapiens, UniProt Q9Y6K1)
ASSIGNED_LABEL: class 0
--
STRUCTURE_SMILES: c1ccc(CN2CCC(Nc3ncnc4cc(OCC5CCN(CCNc6ccnc7ccccc67)CC5)ccc34)CC2)cc1
TESTED_ON: DNA (cytosine-5)-methyltransferase 3A (Homo sapiens, UniProt Q9Y6K1)
ASSIGNED_LABEL: class 0
--
STRUCTURE_SMILES: Oc1cc2nccc(NCCN3CCC(COc4ccc5c(NCCCc6ccccc6)ncnc5c4)CC3)c2cc1O
TESTED_ON: DNA (cytosine-5)-methyltransferase 3A (Homo sapiens, UniProt Q9Y6K1)
ASSIGNED_LABEL: class 0
--
STRUCTURE_SMILES: Oc1ccc2c(NCCN3CCC(COc4ccc5c(NCCCc6ccccc6)ncnc5c4)CC3)ccnc2c1
TESTED_ON: DNA (cytosine-5)-methyltransferase 3A (Homo sapiens, UniProt Q9Y6K1)
ASSIGNED_LABEL: class 0
--
STRUCTURE_SMILES: Cc1cc(NCCN2CCC(COc3ccc4c(NCCCc5ccccc5)ncnc4c3)CC2)c2ccccc2n1
TESTED_ON: DNA (cytosine-5)-methyltransferase 3A (Homo sapiens, UniProt Q9Y6K1)
ASSIGNED_LABEL: class 1
